target: Cytochrome P450 2C19 (Homo sapiens); assay: qHTS Assay for Inhibitors and Substrates of Cytochrome P450 2C19 (AID 899); conditions: recombinant CYP2C19, luciferin-H EGE luminescence; series mostly up to 57.1 µM; further: nearly all actives have a fitted effect of over 60% in size
Inconclusive results are not listed. Active and inactive are the calls of the source. The call rests on the fitted dose curve; in most records, active means well fitted inhibition curve with a large enough effect; inconclusive means small, poorly fitted or top-dose-only effect; inactive means no such curve, though single readings can be large or run the other way.
Labels: active, inactive

# Compound, Label Class
measured = [
    ("CCCC[C@@H]1C[C@H]1C(NC(=O)c1cccs1)c1ccccc1C(F)(F)F (stereo not given in full)", "active"),
    ("COC(=O)[C@@]1(Cc2ccccc2)[C@H]2c3cc(C(=O)N4CCCC4)n(Cc4cccc5ccccc45)c3C[C@H]2CN1C(=O)c1ccccc1", "active"),
    ("CC(C)C[C@@H](CC(=O)N[C@H](CC(=O)N[C@@H]1CCCC[C@H]1C(=O)N[C@H](CC(=O)N[C@@H](CCC(=O)O)CC(=O)O)Cc1c[nH]c2ccccc12)C(C)C)NC(=O)[C@@H]1CNCC[C@H]1N", "inactive"),
    ("O=c1c(O)c(-c2cccc(O)c2)oc2ccccc12", "active"),
    ("CC(C)[C@@H](CC(=O)N[C@@H]1CCCC[C@H]1C(=O)N[C@H](CC(=O)N[C@@H](CCC(=O)O)CC(=O)O)Cc1ccccc1)NC(=O)C[C@H](Cc1c[nH]c2ccccc12)NC(=O)[C@@H]1CNCC[C@H]1N", "inactive"),
    ("CCC/C=C(\\CCC)C(NS(=O)(=O)c1ccc(C(F)(F)F)cc1)c1ccc(C(=O)OC)cc1 (stereo not given)", "active"),
    ("CC(C)C[C@@H](CC(=O)N[C@H](CC(=O)N[C@@H]1CCCC[C@H]1C(=O)N[C@H](CC(=O)N[C@@H](CCC(=O)O)CC(=O)O)CC(C)C)C(C)C)NC(=O)[C@@H]1CCCC[C@H]1N", "inactive"),
    ("CC(C)C[C@@H](CC(=O)N[C@H](CC(=O)N[C@@H]1CCNC[C@H]1C(=O)N[C@H](CC(=O)N[C@@H](CCC(=O)O)CC(=O)O)Cc1c[nH]c2ccccc12)C(C)C)NC(=O)[C@@H]1CNCC[C@H]1N", "inactive"),
    ("CC(=O)Oc1cc(OC(C)=O)c2c(=O)cc(-c3ccc(OC(C)=O)c(OC(C)=O)c3)oc2c1", "inactive"),
    ("CCC[C@@H]1C[C@@]1(CCC)C(NS(=O)(=O)c1cccc2cccnc12)c1ccc(Cl)cc1 (stereo not given in full)", "active"),
    ("CCCCCC1=C2CNC(Cc3ccccc3)(C(=O)OC)C=C2C(C)C1=O (stereo not given)", "active"),
    ("CCCC[C@@H]1C[C@H]1C(NC(=O)c1ccccc1)c1ccc(Cl)cc1 (stereo not given in full)", "active"),
    ("CCCC[C@@H]1C[C@H]1C(NC(=O)c1ccccc1)c1ccccc1 (stereo not given in full)", "active"),
    ("C[C@@H](C(=O)NCc1ccccn1)[C@@H]1C[C@@]1(C)[C@@H](NC(=O)OCc1ccccc1)c1ccccc1", "active"),
    ("COC(=O)[C@@]1(Cc2ccccc2)[C@H]2c3cc(C(=O)N4CCCC4)n(Cc4ccc(O)c(OC)c4)c3C[C@H]2CN1C(=O)c1ccccc1", "active"),
]
